Target: Tyrosine-protein kinase JAK3 (Homo sapiens)
Sequence (P52333 whole entry, the tested form may be a part): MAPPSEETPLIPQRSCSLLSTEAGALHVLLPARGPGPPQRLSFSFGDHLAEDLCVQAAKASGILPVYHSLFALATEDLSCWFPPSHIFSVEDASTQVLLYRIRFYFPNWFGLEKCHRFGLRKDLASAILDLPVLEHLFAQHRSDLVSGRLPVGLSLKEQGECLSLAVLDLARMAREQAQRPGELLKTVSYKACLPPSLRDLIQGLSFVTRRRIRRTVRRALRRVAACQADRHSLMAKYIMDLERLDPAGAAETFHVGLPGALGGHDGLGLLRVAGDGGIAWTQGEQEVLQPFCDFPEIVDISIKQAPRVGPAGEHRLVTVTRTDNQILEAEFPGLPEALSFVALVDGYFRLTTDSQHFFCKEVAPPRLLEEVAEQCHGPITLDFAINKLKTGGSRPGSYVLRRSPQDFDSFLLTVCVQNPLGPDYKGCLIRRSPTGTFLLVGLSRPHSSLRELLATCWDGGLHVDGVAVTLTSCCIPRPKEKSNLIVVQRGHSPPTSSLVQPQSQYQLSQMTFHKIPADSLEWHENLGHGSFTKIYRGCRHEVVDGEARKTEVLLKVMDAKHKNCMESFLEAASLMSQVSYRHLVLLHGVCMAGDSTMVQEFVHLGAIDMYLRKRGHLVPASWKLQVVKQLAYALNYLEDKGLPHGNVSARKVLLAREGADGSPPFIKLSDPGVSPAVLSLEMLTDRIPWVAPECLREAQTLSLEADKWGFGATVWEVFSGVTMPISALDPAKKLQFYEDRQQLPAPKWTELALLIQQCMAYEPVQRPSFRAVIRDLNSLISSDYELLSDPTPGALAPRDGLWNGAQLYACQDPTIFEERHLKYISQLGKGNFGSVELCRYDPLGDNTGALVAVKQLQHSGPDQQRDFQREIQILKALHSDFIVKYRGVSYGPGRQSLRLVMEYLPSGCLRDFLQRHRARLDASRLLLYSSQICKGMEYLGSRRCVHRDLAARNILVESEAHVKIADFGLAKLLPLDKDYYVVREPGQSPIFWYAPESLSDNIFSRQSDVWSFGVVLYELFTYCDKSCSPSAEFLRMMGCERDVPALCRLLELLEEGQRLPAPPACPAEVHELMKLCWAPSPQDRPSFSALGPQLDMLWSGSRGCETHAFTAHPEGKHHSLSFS
Assay: Binding affinity to wild-type human partial length JAK3 JH1 catalytic domain (I781 to S1124 residues) expressed in mammalian expression system measured after 1 hr by competitive binding assay
MEASUREMENT_LABEL: Kd (µM)
Unit µM implied. Number only.

[ask] Suppose we examine the molecule CN(C)c1nccc(-c2cnn3ncccc23)n1 ; what Kd value has been reported?
[reply] 1.8

====

For each record, write down the corresponding pIC50.
Biological target: Dual specificity tyrosine-phosphorylation-regulated kinase 1A (Homo sapiens, UniProt Q13627)
Experiment: Displacement of Kinase tracer 236 from biotinylated DYRK1A (unknown origin) expressed in Escherichia coli BL21 (DE3) incubated for 1.5 hrs by TR-FRET assay
Please express pIC50 as -log10 of the molar concentration.

[ask] Suppose we examine the compound CN(C)c1nccc(-c2cnn3ccccc23)n1 ; what pIC50 value has been reported?
[reply] 6.05

[ask] Suppose we examine the compound CN(C)c1nccc(-c2c[nH]c3ncccc23)n1 ; what pIC50 value has been reported?
[reply] 6.87

[ask] Suppose we examine the compound FC1CCN(c2nccc(-c3cnn4ncccc34)n2)C1 (single isomer, unassigned) ; what pIC50 value has been reported?
[reply] 7.18

[ask] Suppose we examine the compound CN(CCC(F)(F)F)c1nccc(-c2cnn3ncccc23)n1 ; what pIC50 value has been reported?
[reply] 6.64

[ask] Suppose we examine the compound c1cnn2ncc(-c3ccnc(N4CC5(COC5)C4)n3)c2c1 ; what pIC50 value has been reported?
[reply] 6.29

[ask] Suppose we examine the compound CN(C)c1ncc(F)c(-c2cnn3ncccc23)n1 ; what pIC50 value has been reported?
[reply] 7.24

====

Test: Metabolic stability in rat liver microsomes
Format: ADME, Microsome
Details: read-out: Stabilty
Outcome label depends on microsomal CLint relative to 400 µL/min/mg: at/above gives 1 (yes), below gives 0 (no).

[ask] Given NC1CCN(c2nccc(-c3cnn4ncccc34)n2)C1 (single isomer, unassigned) , state whether its microsomal CLint is at least 400 µL/min/mg.
[reply] 0 (no)

[ask] Given CC1CCN(c2nccc(-c3cnn4ncccc34)n2)C1 (single isomer, unassigned) , state whether its microsomal CLint is at least 400 µL/min/mg.
[reply] 0 (no)

[ask] Given C[C@H]1CCN(c2nccc(-c3cnn4ncccc34)n2)C1 , state whether its microsomal CLint is at least 400 µL/min/mg.
[reply] 1 (yes)

[ask] Given CN(C)c1nccc(-c2cnn3ncccc23)n1 , state whether its microsomal CLint is at least 400 µL/min/mg.
[reply] 0 (no)

[ask] Given CN(C)c1nccc(-c2c[nH]c3ncccc23)n1 , state whether its microsomal CLint is at least 400 µL/min/mg.
[reply] 0 (no)

[ask] Given Cc1cnn2ncc(-c3ccnc(N(C)C)n3)c2c1 , state whether its microsomal CLint is at least 400 µL/min/mg.
[reply] 0 (no)

[ask] Given Cc1cccc(N(C)c2nccc(-c3cnn4ncccc34)n2)c1 , state whether its microsomal CLint is at least 400 µL/min/mg.
[reply] 1 (yes)

[ask] Given CN(C)c1nccc(-c2cnc3ncccn23)n1 , state whether its microsomal CLint is at least 400 µL/min/mg.
[reply] 0 (no)

[ask] Given CN(c1nccc(-c2cnn3ncccc23)n1)C1CC1 , state whether its microsomal CLint is at least 400 µL/min/mg.
[reply] 1 (yes)

[ask] Given CN(C)c1ncc(F)c(-c2cnn3ncccc23)n1 , state whether its microsomal CLint is at least 400 µL/min/mg.
[reply] 1 (yes)
